test system: LNCaP; experiment: Antiproliferative activity against human LNCAP cells assessed as reduction in cell viability incubated for 24 hrs by MTT assay
parameter measured: IC50 (nM)

O=C(OCn1ncc(Cl)c(Cl)c1=O)c1cccc(C(F)(F)F)c1 | 1710
CC(C)(C)c1cc2cc(NC(=O)c3cccs3)ccc2[nH]1 | 4630

(1) CS(=O)(=O)c1ccc(CCC(=O)Nc2ccccn2)cc1
(2) CCCCc1ccc(NC(C)=O)c(C)c1
Q: Which one would you say has the larger IC50 value: 1 , or 2 ? Pick one and reply with its label.
Result: 1
(1: 3560 nM, 2: 1090 nM)

----------
test system: HGC-27; test: Antiproliferative activity against human HGC-27 cells assessed as reduction in cell growth incubated for 24 hrs by CCK-8 assay; format: functional, cell-based; conditions: HGC-27, 24 h
parameter measured: IC50 (nM)
State just the number; it will be interpreted in nM.

Q: Record lookup: for HGC-27, what IC50 belongs to CCOc1nc2cccc(C(=O)OCc3oc(=O)oc3C)c2n1Cc1ccc(-c2ccccc2-c2noc(=O)[nH]2)cc1 [AZILSARTAN MEDOXOMIL] ?
Result: 399

Where do these numbers come from? They come from ChEMBL document CHEMBL6071154.
